- assay overview: in vivo
- condition summary: male, Sprague Dawley, rat, plasma, iv, 10 mg/kg
experimental readout: half-life (h)

CCCCCCCCCCCCCCNC(=O)NC(CC(=O)O)C(=O)NC1C(=O)N2CCCCC2C(=O)NC(C(C)C(=O)O)C(=O)NC(CC(=O)O)C(=O)NCC(=O)NC(CC(=O)O)C(=O)NCC(=O)NC(C(C)NC(=O)CCN)C(=O)NC(C(C)C)C(=O)N2CCCC2C(=O)NC1C (stereo not shown) [Compound 278] | 7.08

---

- Test system: Enterococcus faecalis EFS0004 (VSE)
- assay overview: Broad spectrum MIC, Table 17/18 B, C, D (CAMHB; + 0.625 mM calcium; + calcium and 30% bovine serum)
- Assay type: cell-based
- condition summary: condition B: CAMHB, in µg/mL
Collected MIC, media condition B values appear next to each entry.
experimental readout: MIC, media condition B

CCCCCCCCCCCCOc1ccc(C(=O)NC(CC(=O)O)C(=O)NC2C(=O)N3CCCCC3C(=O)NC(C(C)C(=O)O)C(=O)NC(CC(=O)O)C(=O)NCC(=O)NC(CC(=O)O)C(=O)NCC(=O)NC(C(C)NC(=O)CN)C(=O)NC(C(C)C)C(=O)N3CCCC3C(=O)NC2C)cc1 (stereo not shown) | 0.5-1
CCCCCCCCCCCCNC(=O)NC(CC(=O)O)C(=O)NC1C(=O)N2CCCCC2C(=O)NC(C(C)C(=O)O)C(=O)NC(CC(=O)O)C(=O)NCC(=O)NC(CC(=O)O)C(=O)NCC(=O)NC(C(C)NC(=O)CN)C(=O)NC(C(C)C)C(=O)N2CCCC2C(=O)NC1C (stereo not shown) | 6-16
CCCCCCCCCCCCCCC(=O)NC(CC(=O)O)C(=O)NC1C(=O)N2CCCCC2C(=O)NC(C(C)C(=O)O)C(=O)NC(CC(=O)O)C(=O)NCC(=O)NC(CC(=O)O)C(=O)NCC(=O)NC(C(C)NC(=O)[C@H]2CCCN2)C(=O)NC(C(C)C)C(=O)N2CCCC2C(=O)NC1C (stereo partly shown) | 2-4
CCCCCCCCCCCCCCC(=O)NC(CC(=O)O)C(=O)NC1C(=O)N2CCCCC2C(=O)NC(C(C)C(=O)O)C(=O)NC(CC(=O)O)C(=O)NCC(=O)NC(CC(=O)O)C(=O)NCC(=O)NC(C(C)NC(=O)CNC(=O)[C@@H](N)CCCCN)C(=O)NC(C(C)C)C(=O)N2CCCC2C(=O)NC1C (stereo partly shown) | 1-4
CCCCCCCCCCCCCCCCC(=O)NC(CC(=O)O)C(=O)NC1C(=O)N2CCCCC2C(=O)NC(C(C)C(=O)O)C(=O)NC(CC(=O)O)C(=O)NCC(=O)NC(CC(=O)O)C(=O)NCC(=O)NC(C(C)N)C(=O)NC(C(C)C)C(=O)N2CCCC2C(=O)NC1C (stereo not shown) | 0.5-1
CCCCCCCCCCCCCCC(=O)NC(CC(=O)O)C(=O)NC1C(=O)N2CCCCC2C(=O)NC(C(C)C(=O)O)C(=O)NC(CC(=O)O)C(=O)NCC(=O)NC(CC(=O)O)C(=O)NCC(=O)NC(C(C)NC(=O)CN(C)C(=O)[C@@H](N)CCCCN)C(=O)NC(C(C)C)C(=O)N2CCCC2C(=O)NC1C (stereo partly shown) | 1-2
CCCCCCCCCCCCCCCCC(=O)NC(CC(=O)O)C(=O)NC1C(=O)N2CCCCC2C(=O)NC(C(C)C(=O)O)C(=O)NC(CC(=O)O)C(=O)NCC(=O)NC(CC(=O)O)C(=O)NCC(=O)NC(C(C)NC(=O)CCN)C(=O)NC(C(C)C)C(=O)N2CCCC2C(=O)NC1C (stereo not shown) | 0.5-1
